# methodSummary: xn = mol fraction of the nth substance listed, in the solute-free solvent
# conditionsUsed: 278.15 K; x2 = 0.8
property: solubility (g/100 g solution)
No unit in the answer, please; the number alone is enough.

>  <compound>
Cc1ncc(CO)c(CO)c1O.Cl + O + CCCO

>  <solubility (g/100 g solution)>
6.99

$$$$
>  <compound>
CCOC(=O)OC1=C(c2cc(C)ccc2C)C(=O)NC12CCC(OC)CC2 (stereo not given) + CC(C)=O + O

>  <solubility (g/100 g solution)>
9.34

$$$$
>  <compound>
CCOC(=O)OC1=C(c2cc(C)ccc2C)C(=O)NC12CCC(OC)CC2 (stereo not given) + CC(C)O + O

>  <solubility (g/100 g solution)>
2.53

$$$$
>  <compound>
CCOC(=O)OC1=C(c2cc(C)ccc2C)C(=O)NC12CCC(OC)CC2 (stereo not given) + CCO + O

>  <solubility (g/100 g solution)>
3.14

$$$$

[ask] Would you mind telling me what solubility (g/100 g solution) value was observed for Cc1c(Br)c(=O)n(C2CCCC2)c2nc(Cl)ncc12 + C1CCOC1 + CCO ?
[reply] 3.12

---

# methodSummary: xn = mol fraction of the nth substance listed, in the solute-free solvent
# conditionsUsed: 283.15 K; x2 = 0.4
Form field: solubility (g/100 g solution) (one value per entry).
No unit in the answer, please; the number alone is enough.

>  <compound>
CCOC(=O)OC1=C(c2cc(C)ccc2C)C(=O)NC12CCC(OC)CC2 (stereo not given) + CO + O

>  <solubility (g/100 g solution)>
0.365

$$$$
>  <compound>
Cl.NC(Cc1ccccc1)C(=O)OCc1ccccc1 (stereo not given) + CO + CC(C)=O

>  <solubility (g/100 g solution)>
2.29

$$$$
>  <compound>
Cc1c(Br)c(=O)n(C2CCCC2)c2nc(Cl)ncc12 + C1CCOC1 + CCO

>  <solubility (g/100 g solution)>
2.29

$$$$
>  <compound>
Cc1ncc(CO)c(CO)c1O.Cl + O + CCCO

>  <solubility (g/100 g solution)>
1.9

$$$$
>  <compound>
CCOC(=O)OC1=C(c2cc(C)ccc2C)C(=O)NC12CCC(OC)CC2 (stereo not given) + CCO + O

>  <solubility (g/100 g solution)>
1.85

$$$$

[ask] Would you mind telling me what solubility (g/100 g solution) value was observed for Cc1c(Br)c(=O)n(C2CCCC2)c2nc(Cl)ncc12 + CCOC(C)=O + CCO ?
[reply] 0.414

---

# methodSummary: xn = mol fraction of the nth substance listed, in the solute-free solvent
# conditionsUsed: 288.15 K; x2 = 0.5454
Form field: solubility (g/100 g solution) (one value per entry).
No unit in the answer, please; the number alone is enough.

Below, each entry is followed by its recorded solubility (g/100 g solution) result.
>  <molecule>
Cc1nc2n(c(=O)c1CCN1CCC(c3noc4cc(F)ccc34)CC1)CCCC2 + CC(C)O + O

>  <solubility (g/100 g solution)>
6.38

$$$$
>  <molecule>
Nc1nc2ccc(OC(F)(F)F)cc2s1 + CCCO + O

>  <solubility (g/100 g solution)>
57.9

$$$$
>  <molecule>
c1ccc(-c2ccc(C(c3ccccc3)n3ccnc3)cc2)cc1 (centres undefined) + CCCO + O

>  <solubility (g/100 g solution)>
1.42

$$$$

Proceeding to the next molecule to report its solubility (g/100 g solution).
[ask] Would you mind telling me what solubility (g/100 g solution) value was observed for c1ccc(-c2ccc(C(c3ccccc3)n3ccnc3)cc2)cc1 (centres undefined) + CC(C)O + O ?
[reply] 1.36

---

# methodSummary: xn = mol fraction of the nth substance listed, in the solute-free solvent
# conditionsUsed: 323.15 K; x2 = 0.5
Threshold check on solubility (g/100 g solution): at or above 20 gives Y, strictly below gives N.

These recorded examples may help you get a feel for the data.
>  <molecule>
Cc1c(Br)c(=O)n(C2CCCC2)c2nc(Cl)ncc12 + CC1=CC(=O)CC(C)(C)C1 + CC(C)O

>  <qualitativeLabel>
N

$$$$
>  <molecule>
CCOc1ccccc1C(N)=O + CC#N + CCO

>  <qualitativeLabel>
Y

$$$$
>  <molecule>
Cl.N=C(N)NC(=N)N1CCOCC1 + O + CC(C)O

>  <qualitativeLabel>
Y

$$$$
>  <molecule>
Cc1c(Br)c(=O)n(C2CCCC2)c2nc(Cl)ncc12 + C1CCOC1 + CCO

>  <qualitativeLabel>
N

$$$$

[ask] Dear colleague, could you confirm whether O=C(NC(C(=O)O)c1ccccc1)OCc1ccccc1 (stereo unspecified) + CCO + O has solubility (g/100 g solution) at or above 20?
[reply] Y

---

Form field: solubility (g/100 g solution) (one value per entry).
# methodSummary: xn = mol fraction of the nth substance listed, in the solute-free solvent
# conditionsUsed: 303.15 K; x2 = 0.2
No unit in the answer, please; the number alone is enough.

Below, each entry is followed by its recorded solubility (g/100 g solution) result.
>  <compound>
Cc1c(Br)c(=O)n(C2CCCC2)c2nc(Cl)ncc12 + CC1=CC(=O)CC(C)(C)C1 + CC(C)O

>  <solubility (g/100 g solution)>
0.819

$$$$
>  <compound>
CCOc1ccccc1C(N)=O + CCO + CC#N

>  <solubility (g/100 g solution)>
7.75

$$$$
>  <compound>
Cc1c(Br)c(=O)n(C2CCCC2)c2nc(Cl)ncc12 + C1CCOC1 + CCO

>  <solubility (g/100 g solution)>
2.56

$$$$
>  <compound>
COC(=O)C(N)CS.Cl (stereo unspecified) + CCO + ClCCl

>  <solubility (g/100 g solution)>
3.03

$$$$
>  <compound>
CCOC(=O)OC1=C(c2cc(C)ccc2C)C(=O)NC12CCC(OC)CC2 (stereo unspecified) + CC(C)O + O

>  <solubility (g/100 g solution)>
2.85

$$$$

Proceeding to the next compound to report its solubility (g/100 g solution).
[ask] Would you mind telling me what solubility (g/100 g solution) value was observed for CCOc1ccccc1C(N)=O + CO + CC#N ?
[reply] 8.36

---

# methodSummary: xn = mol fraction of the nth substance listed, in the solute-free solvent
# conditionsUsed: 303.15 K; x2 = 0.1666
property: solubility (g/100 g solution)
No unit in the answer, please; the number alone is enough.

Below, each entry is followed by its recorded solubility (g/100 g solution) result.
>  <molecule>
c1ccc(-c2ccc(C(c3ccccc3)n3ccnc3)cc2)cc1 (centres undefined) + CC(C)O + O

>  <experimentalResult>
1.14

$$$$
>  <molecule>
c1ccc(-c2ccc(C(c3ccccc3)n3ccnc3)cc2)cc1 (centres undefined) + CCCO + O

>  <experimentalResult>
1.18

$$$$
>  <molecule>
CC1CCC2C(C)C(OC(=O)CCC(=O)O)OC3OC4(C)CCC1C32OO4 (centres undefined) + CC(C)O + O

>  <experimentalResult>
2.02

$$$$

[ask] Would you mind telling me what solubility (g/100 g solution) value was observed for Nc1nc2ccc(OC(F)(F)F)cc2s1 + CCCO + O ?
[reply] 24.9

---

Form field: solubility (g/100 g solution) (one value per entry).
# methodSummary: xn = mol fraction of the nth substance listed, in the solute-free solvent
# conditionsUsed: 288.15 K; x2 = 0.1
No unit in the answer, please; the number alone is enough.

Below, each entry is followed by its recorded solubility (g/100 g solution) result.
>  <compound>
COC(=O)C(N)CS.Cl (centres undefined) + CCO + ClCCl

>  <solubility (g/100 g solution)>
1.02

$$$$
>  <compound>
Cc1c(Br)c(=O)n(C2CCCC2)c2nc(Cl)ncc12 + CCOC(C)=O + CCO

>  <solubility (g/100 g solution)>
0.26

$$$$
>  <compound>
Cc1c(Br)c(=O)n(C2CCCC2)c2nc(Cl)ncc12 + C1CCOC1 + CCO

>  <solubility (g/100 g solution)>
0.88

$$$$

[ask] Would you mind telling me what solubility (g/100 g solution) value was observed for Cc1c(Br)c(=O)n(C2CCCC2)c2nc(Cl)ncc12 + CC1=CC(=O)CC(C)(C)C1 + CC(C)O ?
[reply] 0.203

---

# methodSummary: xn = mol fraction of the nth substance listed, in the solute-free solvent
# conditionsUsed: 313.15 K; x2 = 0.8
Form field: solubility (g/100 g solution) (one value per entry).
No unit in the answer, please; the number alone is enough.

[ask] Would you mind telling me what solubility (g/100 g solution) value was observed for Cc1c(Br)c(=O)n(C2CCCC2)c2nc(Cl)ncc12 + CC1=CC(=O)CC(C)(C)C1 + CC(C)O ?
[reply] 3.32

[ask] Would you mind telling me what solubility (g/100 g solution) value was observed for Cc1ncc(CO)c(CO)c1O.Cl + O + CCCO ?
[reply] 19.6

[ask] Would you mind telling me what solubility (g/100 g solution) value was observed for CCOC(=O)OC1=C(c2cc(C)ccc2C)C(=O)NC12CCC(OC)CC2 (configuration not stated) + CO + O ?
[reply] 15.7

Reference source for all entries: the CheMixHub drug solubility set
